Entry source: PubChem BioAssay AID248

- System: L1210 leukemia ip in BDF1 mice, survival T/C
- METHOD_DESCRIPTION: NCI In Vivo Anticancer Drug Screen. Data for tumor model L1210 Leukemia (intraperitoneal) in B6D2F1 (BDF1) mice
- PROTOCOL_CONDITIONS: endpoint: mean survival time; dose: 200.0 mg/kg/injection; schedule: Q01DX005 (ip); vehicle: saline; higher = longer survival
Toxic doses and inconclusive results are not listed.
OBSERVATION_TYPE: T/C

State its T/C for this molecule: O=c1ccn2c(n1)OC1C(O)C(CO)OC12 (centres undefined)
111 % of control

Annotate the molecule O=c1[nH]c(=O)n(C2OC(CO)C(O)C2O)c2scnc12 (centres undefined) with its measured T/C.
100 % of control

Tell me its T/C given CCSC1C(OC(C)=O)C(C(CI)OC(C)=O)OC1n1cc(C)c(=O)[nH]c1=O (centres undefined) as the entry.
98 % of control

Find the measured T/C of COC1OC(Cn2cc(-c3ccccc3)nn2)C(OC(C)=O)C(OC(C)=O)C1OC(C)=O (centres undefined) and report it.
96 % of control

###

- Tested on: L1210 leukemia ip in BDF1 mice, survival T/C
- METHOD_DESCRIPTION: NCI In Vivo Anticancer Drug Screen. Data for tumor model L1210 Leukemia (intraperitoneal) in B6D2F1 (BDF1) mice
- PROTOCOL_CONDITIONS: endpoint: mean survival time; dose: 200.0 mg/kg/injection; schedule: Q04DX003 (ip); vehicle: Klucel (hydroxypropylcellulose) (HPC); higher = longer survival
Inconclusive results and toxic doses are left out.
Kindly state T/C for each of the entries shown.

For L1210 leukemia ip in BDF1 mice, survival T/C, give the measured T/C of the entry "Nc1nc2nc(N=Nc3ccc(N=Nc4nc5nc(N)[nH]c(=O)c5[nH]4)cc3)[nH]c2c(=O)[nH]1"
99 % of control

Report the value of T/C obtained on L1210 leukemia ip in BDF1 mice, survival T/C for Cc1ccc(C)c(NC(=O)N(CC(O)c2ccccc2)C2CCCCC2)c1 (stereo unspecified) .
100 % of control

Provide T/C, tested on L1210 leukemia ip in BDF1 mice, survival T/C, for "CCCCCCCCCCCCCCCCNc1cc(C)cc(C)c1" .
95 % of control

Quote T/C with test system L1210 leukemia ip in BDF1 mice, survival T/C for "O=[N+]([O-])c1ccc(S(=O)(=O)OCc2cccc(OS(=O)(=O)c3ccc([N+](=O)[O-])cc3)c2)cc1"
95 % of control

Give T/C only, for "O=C1CCC/C1=C/c1ccccc1" , using L1210 leukemia ip in BDF1 mice, survival T/C data.
95 % of control

Write T/C of "CCCCSP(=S)(Cc1ccccc1)SCCCC" ; system used: L1210 leukemia ip in BDF1 mice, survival T/C
93 % of control

###

- System: L1210 leukemia ip in BDF1 mice, survival T/C
- METHOD_DESCRIPTION: NCI In Vivo Anticancer Drug Screen. Data for tumor model L1210 Leukemia (intraperitoneal) in B6D2F1 (BDF1) mice
- PROTOCOL_CONDITIONS: endpoint: mean survival time; dose: 50.0 mg/kg/injection; schedule: Q01DX001 (ip); vehicle: carboxymethylcellulose (CMC); higher = longer survival
Inconclusive results and toxic doses are left out.
Task for the reader: assign each of the following compounds its reported T/C.

Identify the reported T/C for the following entry. "c1ccc2c(c1)ccc1cc3c4ccccc4c4ccccc4c3cc12"
97 % of control

// Input: "O=C(N/N=C/c1ccc2c(c1)OCO2)c1ccc([N+](=O)[O-])cc1" . Output its T/C only.
97 % of control

# return recorded T/C for entry "Nc1c(Br)cc2c(c1Br)Cc1cc(Cl)ccc1-2"
93 % of control

Give reported T/C value for O=C1CCC2c3ccccc3-c3cccc1c32 (stereo not given)
100 % of control

Please indicate T/C recorded for "Nc1ccc(P(=O)(O)O)cc1"
101 % of control

Item "CN1COc2c(nc(-c3ccccc3)[nH]c2=O)C1" : provide T/C
101 % of control

Tell me T/C reported for Nc1nc(SCc2ccccc2)c2ncn(C3OC(CO)CC3O)c2n1 (stereo not given)
110 % of control

Given the compound "CC(C)(O)CC1=C(O)c2ccccc2C(=O)C1=O" , write its reported T/C.
105 % of control

Fill in T/C for record "Cc1cccc(NC(=O)NCCN(C)Cc2ccccc2)c1"
101 % of control

// fetch T/C given entry CN1CCC(O)(c2ccc(F)cc2)C(C(=O)c2ccc(F)cc2)C1 (stereo not given)
100 % of control

Input "COc1cccc(OC)c1CCO" , output reported T/C.
88 % of control

Kindly indicate its recorded T/C. Item: O=C(O)C1CCC(C(=O)O)CC1 (stereo not given)
101 % of control

Give reported T/C value for "Cc1cc(CC#N)c(CC#N)cc1C"
110 % of control

Input O=[N+]([O-])c1ccc(S(=O)(=O)C2CCCCC2Cl)c([N+](=O)[O-])c1 (stereo not given) , output reported T/C.
95 % of control

Give a short answer stating reported T/C for c1ccc(C2CO2)cc1 (stereo not given) .
95 % of control

###

- Tested on: L1210 leukemia ip in BDF1 mice, survival T/C
- METHOD_DESCRIPTION: NCI In Vivo Anticancer Drug Screen. Data for tumor model L1210 Leukemia (intraperitoneal) in B6D2F1 (BDF1) mice
- PROTOCOL_CONDITIONS: endpoint: mean survival time; dose: 400.0 mg/kg/injection; schedule: Q01DX001 (ip); vehicle: saline; higher = longer survival
Toxic doses and inconclusive results are not listed.
Field: T/C. Provide a value for each of the molecules that follow.

System L1210 leukemia ip in BDF1 mice, survival T/C. Read-out T/C. Item CCCCCC1OC1C/C=C/CCCCCCCC(=O)OCC(COC(=O)CCCCCCC/C=C/CC1OC1CCCCC)OC(=O)CCCCCCC/C=C/CC1OC1CCCCC (configuration not stated) . Report value.
97 % of control

Output reported T/C of the molecule "CC(=O)Nc1ccc(NS(=O)(=O)O)cc1" on L1210 leukemia ip in BDF1 mice, survival T/C.
96 % of control

Check L1210 leukemia ip in BDF1 mice, survival T/C data and give T/C for "S=c1ssc2ccccc12" .
98 % of control

Give T/C; test system L1210 leukemia ip in BDF1 mice, survival T/C; molecule "S=c1[nH]c2ccccc2n1CCc1ccncc1"
95 % of control

For L1210 leukemia ip in BDF1 mice, survival T/C, give T/C of the listed molecule: "Cc1c(/C=N\Nc2ccccc2)[nH]c(=O)[nH]c1=O"
86 % of control

Give reported T/C for CSCSCC(N)C(=O)O (configuration not stated) (L1210 leukemia ip in BDF1 mice, survival T/C)
100 % of control

Please tell me the measured T/C for O=P(c1ccccc1)(c1ccccc1)C1(O)CCCCC1Cl (configuration not stated) ; system: L1210 leukemia ip in BDF1 mice, survival T/C.
100 % of control

Lab note: L1210 leukemia ip in BDF1 mice, survival T/C assay, enter T/C for O=C(O)CCC1NC(=O)NC1=O (configuration not stated) here
91 % of control

Give reported T/C for "O=C1c2cc(Br)ccc2NC1(c1c[nH]c2ccc(Br)cc12)c1c[nH]c2ccc(Br)cc12" (L1210 leukemia ip in BDF1 mice, survival T/C)
93 % of control

Answer with T/C of "Cc1nc(-c2ccc(N=Cc3ccc(N(CCCl)CCCl)cc3)cc2)cs1" measured for L1210 leukemia ip in BDF1 mice, survival T/C.
89 % of control

Report measured T/C on L1210 leukemia ip in BDF1 mice, survival T/C; entry: "Nc1nc2c(c(-c3ccc(Cl)cc3)n1)CN(CCC(=O)O)C2=O"
102 % of control

Please report the measured T/C for "COc1cccc(/C=N\NC(=O)CCCC(=O)N/N=C/c2cccc(OC)c2)c1" tested on L1210 leukemia ip in BDF1 mice, survival T/C.
103 % of control

###

Would you kindly list T/C for each of these compounds?
- Test system: L1210 leukemia ip in BDF1 mice, survival T/C
- METHOD_DESCRIPTION: NCI In Vivo Anticancer Drug Screen. Data for tumor model L1210 Leukemia (intraperitoneal) in B6D2F1 (BDF1) mice
- PROTOCOL_CONDITIONS: endpoint: mean survival time; dose: 100.0 mg/kg/injection; schedule: Q01DX001 (ip); vehicle: Klucel (hydroxypropylcellulose) (HPC); higher = longer survival
Toxic doses and inconclusive results are not listed.

Give T/C for the following compound: "CCOC(=O)c1cnc(SC)nc1Nc1ccc(Cl)c(Cl)c1"
97 % of control

Identify measured T/C corresponding to "CCOC(=O)CSc1nc(N)cc(=O)[nH]1"
117 % of control

Kindly indicate its recorded T/C. Item: "O=C(/C=C\c1ccccc1[N+](=O)[O-])C(=O)/C=C/c1ccccc1[N+](=O)[O-]"
93 % of control

# return recorded T/C for entry "Fc1c(F)c(Oc2c(F)c(F)c(C(F)(F)F)c(F)c2F)c(F)c(Oc2c(F)c(F)c(C(F)(F)F)c(F)c2F)c1F"
96 % of control

Quote T/C reported for O=C1OCC2CC3c4ccccc4C12c1ccccc13 (stereo unspecified) please.
100 % of control

Determine from records and report T/C for "O=C(Cl)OC12CC3CC(CC(C3)C1)C2"
95 % of control

Give T/C for the following compound: "Nc1cc(=S)c2[nH]cnc2[nH]1"
92 % of control

Provide one value: measured T/C of "Nc1c(Cl)cc(Cl)c(-c2c(Cl)cc(Cl)c([N+](=O)[O-])c2Cl)c1Cl"
106 % of control

Report T/C, nothing else, for this compound: COC(=O)C1C2CC3C(OC(=O)C31)C2Br (stereo unspecified)
98 % of control

Give recorded T/C. COC(=O)C(CCC(=O)OC(C)(C)C)NC(=O)C(F)(F)F (stereo unspecified)
100 % of control

Please report T/C for the following compound: "Cc1nc(N)[nH]c(=O)c1CCCCC#N"
100 % of control

Hello, please tell me recorded T/C for this one: "Cc1nc(N)c(=O)[nH]c1C"
104 % of control

For "O=[N+]([O-])c1cnccc1/C=C\c1ccccc1" , write its T/C.
86 % of control

Fill in T/C for record COC1OC(COC(C)=O)C(OC(C)=O)C(NC(=O)NCCCl)C1OC(C)=O (stereo unspecified)
105 % of control

Please look at this compound and report its T/C: "Cc1cc(C)c(C)c(NC(=O)NCCCl)c1C"
92 % of control

Provide T/C value for the following compound: "CCCCCCCCCCCCCCCCCCSCCOCCSCCCCCCCCCCCCCCCCCC"
87 % of control

Respond only with T/C recorded for "C/C(Cl)=C1\CCCC\C1=N\NC(N)=O"
95 % of control

Give recorded T/C. "Clc1ccccc1C(=Nc1ccccc1)C(=Nc1ccccc1)c1ccccc1Cl"
88 % of control

// Input: "COc1ccc([N+](=O)[O-])cc1CNCCCl" . Output its T/C only.
100 % of control

Supply recorded T/C for "Nc1nc(SCc2ccccc2)nc2nc[nH]c12" here.
95 % of control

Identify T/C associated with the compound "O=C(CCl)NCc1ccc([N+](=O)[O-])cc1"
103 % of control

Tell me T/C reported for "O=C(COc1ccc(Cl)c(Cl)c1)NCCc1cc[n+](Cc2ccc(Cl)c(S(=O)(=O)F)c2)cc1"
96 % of control

Specify measured T/C for "N#Cc1ccccc1CNc1ccccc1" .
94 % of control

Identify T/C associated with the compound "O=C1CC2(CCN(Cc3ccccc3)CC2)C(=O)N1Nc1ccccc1"
105 % of control

Specify reported T/C for the compound shown: COc1ccc([N+](=O)[O-])cc1NC(=O)N1CCCCC1C (stereo unspecified)
101 % of control

Please supply the value of reported T/C for the item "CC(=O)NCC(=O)O"
113 % of control
